Tested on: HCT116-WT cells
Assay: Inhibitory activity against cell proliferation (CellTiter Glo, 6 days), HCT116-WT
Type: cell-based
Conditions: 144 h, read-out: HCT116-WT IC50 (nM)
Parameter: IC50 (nM)
Numbers only; they are read as nM.

Task item: Return reported IC50; argument: `Cc1cc2nc(N)c3cnn(C)c3c2cc1C(=O)N1CCCN1c1ncc(-c2ccc(N3CCN(C)CC3)nc2)cc1F`
Reply: 4320

---

Entries and their measured IC50 follow.
Target: PRMT5-MTA (Homo sapiens, UniProt O14744)
Sequence (O14744 whole entry): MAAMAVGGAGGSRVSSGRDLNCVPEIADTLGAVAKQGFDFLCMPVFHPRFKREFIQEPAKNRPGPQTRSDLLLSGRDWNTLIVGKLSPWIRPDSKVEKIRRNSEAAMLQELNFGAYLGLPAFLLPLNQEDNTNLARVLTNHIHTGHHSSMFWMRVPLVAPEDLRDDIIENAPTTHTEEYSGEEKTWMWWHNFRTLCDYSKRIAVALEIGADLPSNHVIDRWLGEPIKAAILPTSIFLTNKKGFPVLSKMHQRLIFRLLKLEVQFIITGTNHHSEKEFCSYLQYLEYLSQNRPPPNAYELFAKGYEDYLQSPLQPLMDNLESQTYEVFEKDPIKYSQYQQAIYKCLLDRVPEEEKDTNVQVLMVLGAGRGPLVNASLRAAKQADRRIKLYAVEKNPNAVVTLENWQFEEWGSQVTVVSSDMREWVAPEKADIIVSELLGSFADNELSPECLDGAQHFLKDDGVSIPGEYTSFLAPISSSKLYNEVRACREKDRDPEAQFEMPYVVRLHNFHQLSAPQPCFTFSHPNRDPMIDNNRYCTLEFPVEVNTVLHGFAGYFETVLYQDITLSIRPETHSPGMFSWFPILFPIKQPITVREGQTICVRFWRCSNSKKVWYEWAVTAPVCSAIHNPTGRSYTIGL
Sequence (Q9BQA1 whole entry partner): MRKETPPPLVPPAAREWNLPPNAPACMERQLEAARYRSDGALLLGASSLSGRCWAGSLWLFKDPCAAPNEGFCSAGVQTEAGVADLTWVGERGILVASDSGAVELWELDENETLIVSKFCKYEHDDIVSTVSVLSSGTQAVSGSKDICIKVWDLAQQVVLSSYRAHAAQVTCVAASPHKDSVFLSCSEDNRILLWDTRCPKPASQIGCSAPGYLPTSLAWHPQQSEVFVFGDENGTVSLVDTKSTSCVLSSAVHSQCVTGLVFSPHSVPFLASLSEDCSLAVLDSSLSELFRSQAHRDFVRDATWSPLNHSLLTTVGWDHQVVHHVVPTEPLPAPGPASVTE
Assay: Enzymatic inhibitory activity against PRMT5-MTA (AlphaScreen)
Assay type: biochemical
Conditions: read-out: IC50
Numeric answer only, unit nM assumed.

Compound | Parameter | Readout Unit | Assay Value
Cc1cc2nc(N)c3c(cnn3C)c2cc1C(=O)N1CC(C)CN1c1ncccc1F (centres unmarked) [Example 504] | IC50 | nM | 8.6

Task item: Reported IC50 for CC(C)c1cc2nc(N)c3cnn(C)c3c2cc1C(=O)N1CCCN1c1ccc(C(F)(F)F)cn1 [Example 500] : what is it?
Reply: 41

Task item: Request the reported IC50 associated with Cc1cc2nc(N)c3cnn(C)c3c2cc1C(=O)N1CCCN1c1ccc(C(F)(F)F)nc1 [Example 329]
Reply: 3.4
